Test system: expanded OPCs
ASSAY_OVERVIEW: cells
TEST_CONTEXT: Rattus norvegicus, 72 h, read-out: 10 µM (% DMSO), alamarBlue viability, NCC library compound at 10 µM, sheet "All Tox data"
viability at 10 µM reference
VALUE_TYPE: viability at 10 µM (%)

COMPOUND	UNIT_SPEC	RECORDED_NUMBER
CCN1CCN(c2cc3c(cc2F)c(=O)c(C(=O)O)cn3C2CC2)CC1 [Enrofloxacin]	%	79.9
CCN(CC)CC1CCCCN1CC(=O)N1c2ccccc2C(=O)Nc2cccnc21 (stereo not drawn) [Otenzepad]	%	75.7
CN(C)CCCN1c2ccccc2CCc2ccccc21 [Imipramine]	%	30.6
Fc1cncnc1 [5-fluoropyrimidine]	%	80.4
O=C(c1ccccc1)c1ccc2n1CCC2C(=O)O (stereo not drawn) [Ketorolac]	%	103
Nc1ncnc2c1ncn2[C@@H]1O[C@H](CO)[C@@H](O)[C@@H]1O [Vidarabine]	%	48.9
CC(C)[N+]1(C)[C@@H]2CC[C@H]1C[C@@H](OC(=O)C(CO)c1ccccc1)C2 (stereo partly drawn) [Ipatropium, reference compound]	%	123
CN(C)CCCC1(c2ccc(F)cc2)OCc2cc(C#N)ccc21 (stereo not drawn) [Nitalapram, reference compound]	%	91.9
CCCCC(=O)N(Cc1ccc(-c2ccccc2-c2nnn[nH]2)cc1)[C@H](C(=O)O)C(C)C [Valsartan]	%	82.9
CC[N+](C)(C)c1cccc(O)c1 [Edrophonium]	%	100
O=C(O[C@H]1[C@H](Oc2ccccc2COC(=O)C2(O)C=CCCC2=O)O[C@H](CO)[C@@H](O)[C@@H]1O)c1ccccc1 (stereo partly drawn) [Tremulacin]	%	20.7
CC[C@]1(O)C[C@@H]2CN(CCc3c([nH]c4ccccc34)[C@@](C(=O)OC)(c3cc4c(cc3OC)N(C)[C@H]3[C@@](O)(C(N)=O)[C@H](O)[C@]5(CC)C=CCN6CC[C@]43[C@@H]65)C2)C1 [Vindesine]	%	9.2
CNCC(O)c1ccc(O)cc1 (stereo not drawn) [Synephrine]	%	93.4
CC(C)(C)C(O)/C=C/c1ccc2c(c1)OCO2 (stereo not drawn) [Stiripentol]	%	83.7
CCCC(CCC)C(=O)O [Valproic Acid]	%	104
Nc1nc(Cl)nc2c1ncn2[C@H]1C[C@H](O)[C@@H](CO)O1 [Cladribine]	%	10.4
COc1ccc(C(=O)NCc2ccc(OCCN(C)C)cc2)cc1OC [Itopride]	%	87.1
C[N+]1(C)CCN(c2ccccc2)CC1 [DMPP, dimethylphenylpiperazinium, reference compound]	%	111

###

0.1 µM (% DMSO) reference
Tested on: expanded OPCs
ASSAY_OVERVIEW: cells
TEST_CONTEXT: alamarBlue viability of expanded OPCs, compound at 0.1 µM, relative to DMSO control
Where a name gives a salt, the structure may show the parent alone.
VALUE_TYPE: 0.1 µM (% DMSO)

> print(dat)
                                    molecule  recorded.number
 1                  Clc1ccc2nsnc2c1NC1=NCCN1             92.8
 2  Cc1cnc(NC(=O)C2=C(O)c3ccccc3S(=O)(=O)N2C)s1             93.1
 3  CC(C)(C)NCC(O)COc1cccc2c1CC(O)C(O)C2 (stereo not drawn)            102.3
 4  Cc1onc(-c2c(Cl)cccc2Cl)c1C(=O)N[C@@H]1C(=O)N2[C@@H]1SC(C)(C)[C@@H]2C(=O)O             93.5
 5              CC[C@@H](CO)NCCN[C@@H](CC)CO            106.3
 6   COC(=O)Nc1nc2ccc(C(=O)c3ccccc3)cc2[nH]1             47.2
 7  C[C@H](CCC(=O)O)[C@H]1CC[C@H]2[C@@H]3[C@H](O)C[C@@H]4C[C@H](O)CC[C@]4(C)[C@H]3CC[C@]12C            111.3
 8  Cc1cn([C@H]2C=C[C@@H](CO)O2)c(=O)[nH]c1=O             90.1
 9  CC(N)C12CC3CC(CC(C3)C1)C2 (stereo not drawn)             89.9
10  O=C(N[C@H](CO)[C@H](O)c1ccc([N+](=O)[O-])cc1)C(Cl)Cl             87.1
11  CC(C[N+](C)(C)C)OC(N)=O (stereo not drawn)             87.6
12    Cc1cccc(C)c1OCC(C)N (stereo not drawn)             91.7
13  COc1ccc(Cl)cc1C(=O)NCCc1ccc(S(=O)(=O)NC(=O)NC2CCCCC2)cc1 [Glyburide]             95.4
14  CCCC(=O)O[C@]1(C(=O)COC(=O)CC)CC[C@H]2[C@@H]3CCC4=CC(=O)CC[C@]4(C)[C@H]3[C@@H](O)C[C@@]21C [Hydrocortisone buteprate]            112.3
15  COc1cccc2c1C(=O)c1c(O)c3c(c(O)c1C2=O)C[C@@](O)(C(=O)CO)C[C@@H]3O[C@H]1C[C@H](N)[C@H](O)[C@H](C)O1              9.9
16  CN[C@@H]1[C@H](O)[C@H](NC)[C@H]2O[C@@]3(O)C(=O)C[C@@H](C)O[C@H]3O[C@@H]2[C@H]1O             91.8
17       Nc1ccn([C@@H]2CS[C@H](CO)O2)c(=O)n1             94.3
18  CCOC(=O)C1=C(C)NC(C)=C(C(=O)OC)C1c1cccc(Cl)c1Cl (stereo not drawn)             85.5
19  CNCCC(Oc1ccc(C(F)(F)F)cc1)c1ccccc1 (stereo not drawn) [Fluoxetine hydrochloride]             77.4
20              Oc1cc(Cl)ccc1Oc1ccc(Cl)cc1Cl            100.2
21  CC(COc1ccccc1)NC(C)C(O)c1ccc(O)cc1 (stereo not drawn)             97.2
22  CC(C)(C)NCC(O)c1cc(O)cc(O)c1 (stereo not drawn)             91.9
23  CC(=O)Nc1nnc(S(N)(=O)=O)s1 [Acetazolamide]             89.2
24  Cc1ccc(S(=O)(=O)NC(=O)NN2CCCCCC2)cc1 [Tolazamide]            100.3
25                            O=C(O)c1cccnc1             92.4
26            CN(C)CCC=C1c2ccccc2CCc2ccccc21             82.0
27         O=C1NC(=O)C(c2ccccc2)(c2ccccc2)N1             88.8
28                             Cn1cc[nH]c1=S             88.3
29  CC1COc2c(N3CCN(C)CC3)c(F)cc3c(=O)c(C(=O)O)cn1c23 (stereo not drawn)             93.4
30  NS(=O)(=O)c1cc2c(cc1Cl)N=CNS2(=O)=O [Chlorothiazide]             88.9
31  CCN(CC)CC#CCOC(=O)C(O)(c1ccccc1)C1CCCCC1 (stereo not drawn) [Oxybutynin, reference compound]            129.9
32  C[C@@H]1C[C@H]2[C@@H]3CCC4=CC(=O)C=C[C@]4(C)[C@@]3(F)[C@@H](O)C[C@]2(C)[C@@]1(O)C(=O)CO [Dexamethasone]            108.6
33  CN[C@H]1CC[C@@H](c2ccc(Cl)c(Cl)c2)c2ccccc21             52.7
34  CC1(C)O[C@@H]2C[C@H]3[C@@H]4CCC5=CC(=O)C=C[C@]5(C)[C@@]4(F)[C@@H](O)C[C@]3(C)[C@]2(C(=O)CO)O1             95.7
35                CS(=O)(=O)OCCCCOS(C)(=O)=O             93.9
36              Nc1nc(O)c2ncn(COC(CO)CO)c2n1            103.0
